- Species: Rattus norvegicus
- experiment_summary: Open TG-GATES - Regimen: Single
- Type: toxicity, organism-based, Sprague-Dawley
- Set-up: regimen Single, gender Male, age 6 weeks
- condition: in vivo, po, 0 mg/kg, 9 h, tissue Blood, route gavage, dose level Control
Answer each item with its documented MCH.
Field format: number, assumed pg, no unit text.

Name the reported MCH value associated with the compound CN(C)CCC=C1c2ccccc2COc2ccccc21 [DOXEPIN]
21.5

Next entry: CC[C@H]1[C@@H]2C[C@H]3[C@@H]4N(C)c5ccccc5[C@]45C[C@@H]([C@@H]2[C@H]5O)N3[C@@H]1O [AJMALINE]
22.2

Input CCc1oc2ccccc2c1C(=O)c1cc(Br)c(O)c(Br)c1 [BENZBROMARONE]
21.6

Proceed to OCCOCCN1CCN(C(c2ccccc2)c2ccc(Cl)cc2)CC1 (stereo not given) [HYDROXYZINE]
20.5

What about this compound? O=NN(CCCl)C(=O)NC1CCCCC1 [LOMUSTINE]
21.7

----------
- Species: Rattus norvegicus
- experiment_summary: Open TG-GATES - Regimen: Single
- Type: toxicity, organism-based, Sprague-Dawley
- Design: regimen Single, gender Male, age 6 weeks
- condition: in vivo, po, 0 mg/kg, 24 h, tissue Plasma, route gavage, dose level Control
assay_metric: TC (mg/dL)
Answer format: numeric, mg/dL implied, no suffix.

Please give the measured TC for this molecule: CN(C)CCC=C1c2ccccc2COc2ccccc21 [DOXEPIN]
80.2

Same for CC1=C(CC(=O)O)c2cc(F)ccc2/C1=C\c1ccc([S+](C)[O-])cc1 (stereo not given)
83.2

Please answer likewise for `CCc1oc2ccccc2c1C(=O)c1cc(Br)c(O)c(Br)c1`
81

Item: `O=NN(CCCl)C(=O)NC1CCCCC1`
79.8

What would you report for `CCC1(c2ccccc2)C(=O)NC(=O)NC1=O` ?
72.2

Queued: `CC[C@H]1[C@@H]2C[C@H]3[C@@H]4N(C)c5ccccc5[C@]45C[C@@H]([C@@H]2[C@H]5O)N3[C@@H]1O`
81

How about this molecule: ClC(Cl)(Cl)Cl [CARBON TETRACHLORIDE]
79.2

Same again, this time with OCCOCCN1CCN(C(c2ccccc2)c2ccc(Cl)cc2)CC1 (stereo not given) [HYDROXYZINE]
75.2

Also check CC(C)N(CCC(C(N)=O)(c1ccccc1)c1ccccn1)C(C)C (stereo not given) [DISOPYRAMIDE]
71.8

Ok, now `O=NN1CCOCC1`
81.8

----------
- Organism: Rattus norvegicus
- experiment_summary: Open TG-GATES - Regimen: Daily Repeat
- Type: toxicity, organism-based, Sprague-Dawley
- Set-up: regimen Daily Repeat, gender Male, age 6 weeks
- condition: in vivo, po, 0 mg/kg, 72 h, tissue Blood, route gavage, dose level Control, time 3 day
Could you please report measured Neu for the items listed next?
Entry rule: numbers only, all in %.

# lookup: Neu of CC[C@H]1[C@@H]2C[C@H]3[C@@H]4N(C)c5ccccc5[C@]45C[C@@H]([C@@H]2[C@H]5O)N3[C@@H]1O [AJMALINE]
13

Okay, and CCCCc1oc2ccccc2c1C(=O)c1cc(I)c(OCCN(CC)CC)c(I)c1 [AMIODARONE] ?
20.4

Can you check CC1=C(CC(=O)O)c2cc(F)ccc2/C1=C\c1ccc([S+](C)[O-])cc1 (stereo not given) next?
17

Lookup CCc1oc2ccccc2c1C(=O)c1cc(Br)c(O)c(Br)c1 [BENZBROMARONE]
18.6

Please answer likewise for CN(C)C(=N)N=C(N)N [METFORMIN]
19.6

Repeat with CN(C)CCC=C1c2ccccc2COc2ccccc21 [DOXEPIN]
17

OCCOCCN1CCN(C(c2ccccc2)c2ccc(Cl)cc2)CC1 (stereo not given) [HYDROXYZINE] , same question.
20.6

Also check O=NN(CCCl)C(=O)NC1CCCCC1 [LOMUSTINE]
16.2

Try this compound next: CCC1(c2ccccc2)C(=O)NC(=O)NC1=O [PHENOBARBITAL]
15.2

Same question for ClC(Cl)(Cl)Cl [CARBON TETRACHLORIDE] please.
13

----------
Hi there, I'd appreciate the recorded MCV for every entry that follows.
- Species on record: Rattus norvegicus
- experiment_summary: Open TG-GATES - Regimen: Daily Repeat
- Format: toxicity, organism-based, Sprague-Dawley
- Parameters: regimen Daily Repeat, gender Male, age 6 weeks
- condition: in vivo, po, 0 mg/kg, 72 h, tissue Blood, route gavage, dose level Control, time 3 day
# number only, unit fL dropped from output

Please give the measured MCV for this compound: `CCc1oc2ccccc2c1C(=O)c1cc(Br)c(O)c(Br)c1`
66.2

Next: `CC[C@H]1[C@@H]2C[C@H]3[C@@H]4N(C)c5ccccc5[C@]45C[C@@H]([C@@H]2[C@H]5O)N3[C@@H]1O`
65

Moving on to `CCCCc1oc2ccccc2c1C(=O)c1cc(I)c(OCCN(CC)CC)c(I)c1`
62.7

// same read-out, input: `CCC1(c2ccccc2)C(=O)NC(=O)NC1=O`
66.9

One more compound: `CN(C)C(=N)N=C(N)N`
64.1

Now the same for ClC(Cl)(Cl)Cl [CARBON TETRACHLORIDE]
63.7

// next record OCCOCCN1CCN(C(c2ccccc2)c2ccc(Cl)cc2)CC1 (stereo unspecified) [HYDROXYZINE]
63.9

Another compound: CC(C)N(CCC(C(N)=O)(c1ccccc1)c1ccccn1)C(C)C (stereo unspecified) [DISOPYRAMIDE]
64.5

Can you check CN(C)CCC=C1c2ccccc2COc2ccccc21 [DOXEPIN] next?
61.7

Same lookup for `O=NN(CCCl)C(=O)NC1CCCCC1` , please.
65.5

Can you check CC1=C(CC(=O)O)c2cc(F)ccc2/C1=C\c1ccc([S+](C)[O-])cc1 (stereo unspecified) next?
64.9

----------
- Species: Rattus norvegicus
- experiment_summary: Open TG-GATES - Regimen: Daily Repeat
- Type: toxicity, organism-based, Sprague-Dawley
- Parameters: regimen Daily Repeat, gender Male, age 6 weeks
- condition: in vivo, po, 0 mg/kg, 72 h, tissue Plasma, route gavage, dose level Control, time 3 day
Could you please report measured LDH for the items listed next?
Give the quantity in IU/L, number only.

LDH for `CC[C@H]1[C@@H]2C[C@H]3[C@@H]4N(C)c5ccccc5[C@]45C[C@@H]([C@@H]2[C@H]5O)N3[C@@H]1O` ?
87.6

Same thing, different compound: `CCC1(c2ccccc2)C(=O)NC(=O)NC1=O`
84.2

# repeat for `O=NN(CCCl)C(=O)NC1CCCCC1`
99.8

Thanks! And `CCCCc1oc2ccccc2c1C(=O)c1cc(I)c(OCCN(CC)CC)c(I)c1` ?
213

Please do the same for CC1=C(CC(=O)O)c2cc(F)ccc2/C1=C\c1ccc([S+](C)[O-])cc1 (stereo unspecified) as well.
73.8

Now this one: `CCc1oc2ccccc2c1C(=O)c1cc(Br)c(O)c(Br)c1`
84.6

Also, ClC(Cl)(Cl)Cl [CARBON TETRACHLORIDE] please.
208.6

# repeat for `CN(C)C(=N)N=C(N)N`
69.8

Let us now turn to CC(C)N(CCC(C(N)=O)(c1ccccc1)c1ccccn1)C(C)C (stereo unspecified) [DISOPYRAMIDE]
201.8

Another compound: OCCOCCN1CCN(C(c2ccccc2)c2ccc(Cl)cc2)CC1 (stereo unspecified) [HYDROXYZINE]
91.8

Please do the same for CN(C)CCC=C1c2ccccc2COc2ccccc21 [DOXEPIN] as well.
71.8

----------
- Organism: Rattus norvegicus
- experiment_summary: Open TG-GATES - Regimen: Single
- Type: toxicity, organism-based, Sprague-Dawley
- Parameters: regimen Single, gender Male, age 6 weeks
- condition: in vivo, po, 0 mg/kg, 3 h, tissue Plasma, route gavage, dose level Control
// No strictly below 70 IU/L in AST; Yes otherwise

# check: AST of CC[C@H]1[C@@H]2C[C@H]3[C@@H]4N(C)c5ccccc5[C@]45C[C@@H]([C@@H]2[C@H]5O)N3[C@@H]1O [AJMALINE] is greater than or equal to 70 IU/L
No

Then CCC1(c2ccccc2)C(=O)NC(=O)NC1=O [PHENOBARBITAL] ?
Yes

Now the same for CN(C)CCC=C1c2ccccc2COc2ccccc21 [DOXEPIN]
Yes

Same question, CC1=C(CC(=O)O)c2cc(F)ccc2/C1=C\c1ccc([S+](C)[O-])cc1 (stereo not given) this time
Yes

Request: CCc1oc2ccccc2c1C(=O)c1cc(Br)c(O)c(Br)c1 [BENZBROMARONE]
No

// same read-out, input: CN(C)C(=N)N=C(N)N [METFORMIN]
Yes

Same thing, different compound: ClC(Cl)(Cl)Cl [CARBON TETRACHLORIDE]
No

Now consider OCCOCCN1CCN(C(c2ccccc2)c2ccc(Cl)cc2)CC1 (stereo not given) [HYDROXYZINE] .
Yes

Cool, now CC(C)N(CCC(C(N)=O)(c1ccccc1)c1ccccn1)C(C)C (stereo not given) [DISOPYRAMIDE]
Yes

Param item: O=NN(CCCl)C(=O)NC1CCCCC1 [LOMUSTINE]
No
